Target: T1, hCMV gH, gL, UL128, UL130 and UL131A co-expressed in HEK293T cells (human cytomegalovirus, UniProt P12824 24-743; P16832 31-278; P16837 1-171; P16772 1-214)
T1 construct: whole, on cells; also called gH + gL + UL128 + UL130 + UL131A; gH/gL/UL128-130 complex
Assay: cell cross-competition, 20x excess; competitor 2C12-biotin
Quantity Name: Inhibition of binding (%)
Give bare numbers, in %.

10P3 (antibody, V domains shown, human IgG mAb) VH: EVQLVESGGGLVRPGGSLRLSCAASGFTFHNYRMNWVRQAPGKGLEWVANIKQDGSEKSYVDSVRGRFTTSRDNSKNSLYLQINSLRAEDTAVYYCARGEGYTYGVVYSYSAMDVWGQGTTVIVSS VL: SYELTQPPSVSVSPGQTARITCSGNVLPNQYASWYQQKPGQAPVLVIYKDTERPSGIPGRFSGSSSGTTVTLTISGVQAEDEADYYCQSADSSGADYVFGTGTKVTVL has a reported Inhibition of binding (%) of 0
